Origin of values: the Immune Epitope Database (IEDB)

ASSAYED TARGET: HLA-A*11:01
PROTOCOL NOTES: IEDB peptide-MHC binding, purified MHC/direct/fluorescence; filed as Kd, often an IC50 or EC50 that approximates it; bounds were set here for any values at or beyond the usual limits of such assays
CONDITION DETAILS: source organism: Influenza A virus (A/chicken/Viet Nam/DT-015/2004(H5N1))
MEASURE NAME: Kd (µM)
Expressed in µM, but write only the number.

Which Kd reading was recorded for the sequence `GIPLYDAIK` ?
7.78

* * *

ASSAYED TARGET: HLA-A*02:01
PROTOCOL NOTES: IEDB peptide-MHC binding, purified MHC/competitive/fluorescence; bounds were set here for any values at or beyond the usual limits of such assays
CONDITION DETAILS: source organism: Vaccinia virus
MEASURE NAME: IC50 (µM)
Expressed in µM, but write only the number.

ITEM SEQUENCE: SLMEMDYER
ASSAYED TARGET: HLA-A*02:01
IC50 [µM]: 2.2

Kindly review the next sequence as well.
Which IC50 reading was recorded for the sequence `KQKMFSNNV` ?
7.07

* * *

ASSAYED TARGET: HLA-B*73:01
PROTOCOL NOTES: IEDB peptide-MHC binding, purified MHC/competitive/fluorescence; filed as Kd, often an IC50 or EC50 that approximates it; bounds were set here for any values at or beyond the usual limits of such assays
CONDITION DETAILS: source organism: Burkholderia vietnamiensis G4
MEASURE NAME: Kd (nM)
Expressed in nM, but write only the number.

Which Kd reading was recorded for the sequence `SRFLRRPAQ` ?
670

* * *

ASSAYED TARGET: HLA-B*44:02
PROTOCOL NOTES: IEDB peptide-MHC binding, purified MHC/direct/fluorescence; filed as Kd, often an IC50 or EC50 that approximates it; bounds were set here for any values at or beyond the usual limits of such assays
CONDITION DETAILS: source organism: Tai Forest virus - Cote d'Ivoire, Cote d'Ivoire, 1994
pKd: −log10 of the molar value.
MEASURE NAME: pKd

Which pKd reading was recorded for the sequence `FAEGVIAFL` ?
≤ 4.70

* * *

ASSAYED TARGET: HLA-B*51:01
PROTOCOL NOTES: IEDB peptide-MHC binding, purified MHC/competitive/radioactivity; filed as Kd, often an IC50 or EC50 that approximates it; bounds were set here for any values at or beyond the usual limits of such assays
CONDITION DETAILS: source organism: Vaccinia virus WR
# maps each entry to its Kd
Expressed in µM, but write only the number.

ITEM SEQUENCE: LPYVGDTSMM
Kd (µM): 3.05
//
ITEM SEQUENCE: DPQNAAVNV
Kd (µM): 1.25

Which Kd reading was recorded for the sequence `IPGDILSII` ?
0.000459

* * *

ASSAYED TARGET: HLA-B*46:01
PROTOCOL NOTES: IEDB peptide-MHC binding, purified MHC/direct/fluorescence; filed as Kd, often an IC50 or EC50 that approximates it; bounds were set here for any values at or beyond the usual limits of such assays
CONDITION DETAILS: source organism: Escherichia coli O157:H7
MEASURE NAME: Kd

Which Kd reading was recorded for the sequence `NIAAPYLPF` ?
≥ 20 µM

* * *

ASSAYED TARGET: HLA-A*23:01
PROTOCOL NOTES: IEDB peptide-MHC binding, purified MHC/competitive/radioactivity; filed as Kd, often an IC50 or EC50 that approximates it; bounds were set here for any values at or beyond the usual limits of such assays
CONDITION DETAILS: source organism: Triticum aestivum
# maps each entry to its Kd

// below: answered sequences
ITEM SEQUENCE: PYPQPQPQY
ASSAYED TARGET: HLA-A*23:01
Kd: ≥ 49.4 µM

ITEM SEQUENCE: AMCNVYIPPY
ASSAYED TARGET: HLA-A*23:01
Kd: 11.5 µM

Kindly review the next sequence as well.
Which Kd reading was recorded for the sequence `ETLPAMCNVY` ?
≥ 38.8 µM
